Hi there, I'd appreciate the recorded koff for every entry that follows.
# experimental.system: cyno FGFR2b protein (recombinant) (cyno, UniProt A0A2K5TL97 22-380)
# assay.explanation: SPR, antibody captured by anti-human Fc, cyno FGFR2b
Numbers only, in s⁻¹.

Guide cases for koff, answers given:
binder	koff [s⁻¹]
BGAm1823 (antibody, V domains shown, assays detect or capture it with anti-human IgG; also called murine parental antibody of BGAh9239) VH: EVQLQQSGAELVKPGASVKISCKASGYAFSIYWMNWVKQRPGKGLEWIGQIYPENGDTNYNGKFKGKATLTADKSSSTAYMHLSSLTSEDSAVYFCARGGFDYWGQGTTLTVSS VL: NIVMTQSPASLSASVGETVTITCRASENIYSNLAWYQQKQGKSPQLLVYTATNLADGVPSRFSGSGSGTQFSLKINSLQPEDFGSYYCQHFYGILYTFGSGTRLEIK	0.0018
BGAm1371 (antibody, V domains shown, assays detect or capture it with anti-human IgG; also called parental mouse clone; murine parental antibody of BGAh9179) VH: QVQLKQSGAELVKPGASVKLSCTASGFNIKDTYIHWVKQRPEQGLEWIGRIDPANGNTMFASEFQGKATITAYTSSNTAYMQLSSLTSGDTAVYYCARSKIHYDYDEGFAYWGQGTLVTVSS VL: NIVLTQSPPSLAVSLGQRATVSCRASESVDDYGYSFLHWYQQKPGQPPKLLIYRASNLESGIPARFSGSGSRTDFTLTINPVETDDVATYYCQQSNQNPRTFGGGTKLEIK	0.00125
BGAh9179 (antibody, human IgG1, kappa, V domains shown, also called BGA9179; humanized antibody developed from BGAm1371) VH: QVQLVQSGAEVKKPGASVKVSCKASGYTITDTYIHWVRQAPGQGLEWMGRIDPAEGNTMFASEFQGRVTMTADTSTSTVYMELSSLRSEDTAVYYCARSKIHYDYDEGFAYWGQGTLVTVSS VL: DIVLTQSPDSLAVSLGERATINCRASESVDDYGYSFLHWYQQKPGQPPKLLIYRASNLESGVPDRFSGSGSGTDFTLTISSLQAEDVAVYYCQQSNQNPRTFGGGTKVEIKR	0.00172

query: Any idea what its koff is? The binder is BGAh9239 (antibody, human IgG1, kappa, V domains shown, also called humanized antibody developed from BGAm1823) VH: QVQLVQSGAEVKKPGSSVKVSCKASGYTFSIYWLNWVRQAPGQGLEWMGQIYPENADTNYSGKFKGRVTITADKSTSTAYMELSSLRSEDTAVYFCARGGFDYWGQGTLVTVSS VL: DIQMTQSPSSLSASVGDRVTITCRASENIYSNLAWYQQKPGKAPKLLIYTATNLAEGVPSRFSGSGSGTDFTLTISSLQPEDFATYYCQHFYGILYTFGQGTRLEIKR
result: 0.00272

Hello, the source for this data is patent US20250222125A1, in case you need it.
